- TESTED SYSTEM: Histamine H2 receptor (Cavia porcellus)
- Sequence (P47747 whole entry): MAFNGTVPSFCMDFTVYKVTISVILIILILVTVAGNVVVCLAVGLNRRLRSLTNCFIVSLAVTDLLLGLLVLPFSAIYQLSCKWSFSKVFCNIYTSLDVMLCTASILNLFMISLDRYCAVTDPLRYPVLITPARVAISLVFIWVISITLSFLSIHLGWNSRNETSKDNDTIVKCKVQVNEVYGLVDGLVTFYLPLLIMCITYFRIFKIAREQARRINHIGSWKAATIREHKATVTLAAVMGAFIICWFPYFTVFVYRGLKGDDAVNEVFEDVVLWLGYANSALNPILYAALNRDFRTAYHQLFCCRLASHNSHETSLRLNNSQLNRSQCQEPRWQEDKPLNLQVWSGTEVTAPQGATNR
- PROCEDURE SUMMARY: Agonist activity at guinea pig H2R
- Type: functional
EXPERIMENTAL ENDPOINT: pEC50
# reply with the number alone; pEC50 is -log10 of concentration in mol/L

For Histamine H2 receptor (Cavia porcellus), give the measured pEC50 of the entry CC1(C)C(=CC=CC=CC2=[N+](CCCCS(=O)(=O)[O-])c3ccccc3C2(C)C)N(CCCCCC(=O)NCCN=C(NC#N)NCCCOc2cccc(CN3CCCCC3)c2)c2ccccc21 7.05

----------
- TESTED SYSTEM: Histamine H2 receptor (Homo sapiens, UniProt P25021)
- Sequence (P25021 whole entry): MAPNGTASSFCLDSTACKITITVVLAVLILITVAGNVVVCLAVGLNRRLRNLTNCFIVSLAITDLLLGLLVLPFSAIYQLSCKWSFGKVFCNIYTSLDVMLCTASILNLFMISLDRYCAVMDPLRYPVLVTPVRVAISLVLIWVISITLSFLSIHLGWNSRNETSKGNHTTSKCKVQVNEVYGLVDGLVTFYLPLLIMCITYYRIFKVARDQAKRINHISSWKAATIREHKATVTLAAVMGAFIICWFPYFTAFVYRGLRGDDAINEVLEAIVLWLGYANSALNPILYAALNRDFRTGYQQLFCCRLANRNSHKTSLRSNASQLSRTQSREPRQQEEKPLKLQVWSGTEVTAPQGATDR
- PROCEDURE SUMMARY: Agonist activity at human H2R
EXPERIMENTAL ENDPOINT: EC50

Quote EC50 reported for CC1(C)C(=CC=CC=CC2=[N+](CCCCS(=O)(=O)[O-])c3ccccc3C2(C)C)N(CCCCCC(=O)NCCN=C(NC#N)NCCCOc2cccc(CN3CCCCC3)c2)c2ccccc21 please. 0.16 µM

Data origin, for the record: ChEMBL document CHEMBL1146852
